# Test system: A549
# methodDescription: In vitro tumor cell proliferation, A549
# Type: cell-based, human
# experimentalContext: Homo sapiens, A549, A549; many values given with an undefined *; read-out: In vitro Tumor Cell Proliferation (IC50, μM) Lung A549
Structures can show the parent of a compound that is named as a salt.
metric: IC50 (µM)

[
  {
    "molecule": "N[C@H]1CC[C@H](Nc2nc(NC3CCN(Cc4cccc(F)c4F)CC3)c3ncn(C4CCCC4)c3n2)CC1 [Example 147-e, trihydrochloride]",
    "metric": "IC50",
    "value": 0.35
  },
  {
    "molecule": "N[C@H]1CC[C@H](Nc2nc(NC3CCN(Cc4cccc(F)c4)CC3)c3ncn(C4CCCC4)c3n2)CC1 [Example 147-j, trihydrochloride]",
    "metric": "IC50",
    "value": 0.15
  },
  {
    "molecule": "COc1cc(CN2CCC(Nc3nc(N[C@H]4CC[C@H](N)CC4)nc4c3ncn4C3CCCC3)CC2)cc(OC)c1 [Example 147-c, trihydrochloride]",
    "metric": "IC50",
    "value": 0.18
  },
  {
    "molecule": "N[C@H]1CC[C@H](Nc2nc(NC3CCN(Cc4ccc(F)cc4Cl)CC3)c3ncn(C4CCCC4)c3n2)CC1 [Example 147-t, trihydrochloride]",
    "metric": "IC50",
    "value": 0.3
  },
  {
    "molecule": "COc1ccc(CNc2nc(N[C@H]3CC[C@H](N)CC3)nc3c2ncn3C2CCCC2)c(OC)c1 [Example 17, dihydrochloride]",
    "metric": "IC50",
    "value": 6.8
  },
  {
    "molecule": "N[C@H]1CC[C@H](Nc2nc(Nc3cccc(F)c3)c3ncn(C4CCCC4)c3n2)CC1 [Example 21, dihydrochloride]",
    "metric": "IC50",
    "value": 0.6
  },
  {
    "molecule": "N[C@H]1CC[C@H](Nc2nc(NC3CCN(Cc4ccc(F)cc4)CC3)c3ncn(C4CCCC4)c3n2)CC1 [Example 147-l, trihydrochloride]",
    "metric": "IC50",
    "value": 0.26
  },
  {
    "molecule": "N[C@H]1CC[C@H](Nc2nc(NC3CCN(Cc4c(Cl)cccc4Cl)CC3)c3ncn(C4CCCC4)c3n2)CC1",
    "metric": "IC50",
    "value": 0.46
  },
  {
    "molecule": "N[C@H]1CC[C@H](Nc2nc(NC3CCN(Cc4ccccc4)CC3)c3ncn(C4CCCC4)c3n2)CC1 [Example 33, trihydrochloride]",
    "metric": "IC50",
    "value": 0.12
  },
  {
    "molecule": "N[C@H]1CC[C@H](Nc2nc(NC3CCN(CC4CCCCC4)CC3)c3ncn(C4CCCC4)c3n2)CC1 [Example 147-s, trihydrochloride]",
    "metric": "IC50",
    "value": 0.22
  },
  {
    "molecule": "CCN(CC)CCNc1nc(N[C@H]2CC[C@H](N)CC2)nc2c1ncn2C1CCCC1 [Example 6, trihydrochloride]",
    "metric": "IC50",
    "value": 7.2
  },
  {
    "molecule": "N[C@H]1CC[C@H](Nc2nc(Nc3ccccc3)c3ncn(C4CCCC4)c3n2)CC1 [Example 32, dihydrochloride]",
    "metric": "IC50",
    "value": 0.37
  },
  {
    "molecule": "COc1ccc(CNc2nc(N[C@H]3CC[C@H](N)CC3)nc3c2ncn3C(C)C)cc1 [Example 37, dihydrochloride]",
    "metric": "IC50",
    "value": 1.3
  }
]
